// data source = patent US20250042994A1

Molecular target: T1, Human CD19-his protein (human, UniProt P15391 20-291)
T1 construct: bought protein; also called recombinant human CD19-His; CD19 full-length protein; not shown: His tag
T1 sequence (looked up): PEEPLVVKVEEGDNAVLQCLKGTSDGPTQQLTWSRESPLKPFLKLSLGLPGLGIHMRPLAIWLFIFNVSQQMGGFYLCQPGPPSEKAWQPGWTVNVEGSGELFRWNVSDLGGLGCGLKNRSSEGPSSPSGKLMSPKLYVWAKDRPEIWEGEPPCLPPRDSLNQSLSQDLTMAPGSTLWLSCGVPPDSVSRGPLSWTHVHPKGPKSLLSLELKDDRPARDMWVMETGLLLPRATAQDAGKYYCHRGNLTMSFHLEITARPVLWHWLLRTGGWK
Experiment: ELISA, coated human CD19-His
# key: entry, value: OD450 at 0.0001 nM
Supply the numeric figure in OD450, leaving out any unit text.

Example cases with answers are listed next.
BINDER	OD450 at 0.0001 nM (OD450)
F3.121.4-L2H2 (antibody, mouse IgG1, kappa, V domains shown, humanized antibody of F3.121.4, VL2+VH2, murine IgG1 constant regions) VH: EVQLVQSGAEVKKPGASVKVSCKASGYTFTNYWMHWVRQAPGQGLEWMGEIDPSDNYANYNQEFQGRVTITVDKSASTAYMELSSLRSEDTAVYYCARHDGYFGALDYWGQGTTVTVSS VL: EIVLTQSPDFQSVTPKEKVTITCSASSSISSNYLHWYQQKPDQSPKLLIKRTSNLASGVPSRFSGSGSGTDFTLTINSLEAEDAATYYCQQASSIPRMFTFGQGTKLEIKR	0.1
F3.121.4-L2H1 (antibody, mouse IgG1, kappa, V domains shown, humanized antibody of F3.121.4, VL2+VH1, murine IgG1 constant regions) VH: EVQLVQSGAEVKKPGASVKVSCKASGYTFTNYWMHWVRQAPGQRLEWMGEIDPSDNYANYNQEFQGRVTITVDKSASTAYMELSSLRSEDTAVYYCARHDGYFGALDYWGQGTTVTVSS VL: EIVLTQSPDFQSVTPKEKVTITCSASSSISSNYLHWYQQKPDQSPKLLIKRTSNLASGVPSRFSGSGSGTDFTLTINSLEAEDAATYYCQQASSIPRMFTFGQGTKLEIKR	0.1

Consider the record given below.
For F3.121.4-L3H1 (antibody, mouse IgG1, kappa, V domains shown, humanized antibody of F3.121.4, VL3+VH1, murine IgG1 constant regions) VH: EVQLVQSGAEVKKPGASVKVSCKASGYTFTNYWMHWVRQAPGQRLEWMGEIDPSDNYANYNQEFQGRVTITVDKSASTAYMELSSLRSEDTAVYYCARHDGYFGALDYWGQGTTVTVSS VL: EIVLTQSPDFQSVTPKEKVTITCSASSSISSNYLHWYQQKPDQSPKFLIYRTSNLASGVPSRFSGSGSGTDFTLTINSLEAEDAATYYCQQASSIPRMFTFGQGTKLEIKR , what is its reported OD450 at 0.0001 nM?
0.1
